assay-readout: Ki

Short answer on Cathepsin S (Homo sapiens) for COC(=O)c1ccc2nc(N[C@@H](CC3CCCCC3)C(=O)N[C@@H](C)CNc3ccc(F)cc3)oc2c1 [Example 24] , Ki: < 100 nM

Short answer on Cathepsin S (Homo sapiens) for CCOC(=O)C[C@@H](CN1CCc2cc(F)ccc21)NC(=O)[C@H](CC1CCCCC1)Nc1nc2ccc(Cl)cc2s1 [Example 30] , Ki: < 100 nM

Short answer on Cathepsin S (Homo sapiens) for O=C(N[C@H](CNc1ccc(F)cc1)COCc1ccccc1)[C@H](CC1CCCCC1)Nc1nc2ccccc2o1 [Example 11] , Ki: < 100 nM

Short answer on Cathepsin S (Homo sapiens) for C[C@@H](CNc1ccc(OC(F)(F)F)cc1)NC(=O)[C@H](CC1CCCC1)Nc1nc2cccc(Cl)c2o1 [Example 39] , Ki: < 100 nM

Short answer on Cathepsin S (Homo sapiens) for CC(C)(C)C[C@H](Nc1nc2ccccc2o1)C(=O)N[C@@H](CC(=O)OC(C)(C)C)CN1CCc2cc(F)ccc21 [Example 3] , Ki: < 1000 nM

Short answer on Cathepsin S (Homo sapiens) for O=C(NCCN1CCc2cc(F)ccc21)[C@H](CC1CCCCC1)Nc1nc2ccccc2s1 [Example 16] , Ki: < 1000 nM

Short answer on Cathepsin S (Homo sapiens) for CC(C)(C)C[C@H](Nc1nc2ccccc2o1)C(=O)N[C@@H](CC(=O)O)CN1CCc2cc(F)ccc21 [Example 4] , Ki: < 100 nM
